Just for reference, PubChem BioAssay AID1159580 is where these values come from.

# MEASUREMENT NOTES: chemical genetic growth profiling, strain panel (AID 1159580);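 also: tested at 20 µM; growth read once vehicle control cultures reached saturation at 30 °C; 1 = growth at the plate median or of vehicle wells; lower values mean less growth of the strain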
# CONDITION PARAMETERS: S. cerevisiae deletion strains, growth OD, locus YJL164C, strain tpk1, hits give low values
Screen size: about 5,500 compounds; about 2,000 (36%) were called active. Another 18% or so got no clear call; they are omitted. Some of the results follow.
MEASURE: normalized growth
A bare number is all that is needed in reply.

Here are 3 compounds together with their reported answers.
>>> recorded_result("NCCc1cnc[nH]1")
1.02
>>> recorded_result("COc1ccc(-c2coc3cc(O)ccc3c2=O)c(OC)c1O")
0.969
>>> recorded_result("O=C1C(Cl)=C(Cl)C(=O)C(Cl)=C1Cl")
0.892

Please look up its normalized growth: CCn1cc(C(=O)O)c(=O)c2cc(F)c(N3CCNC(C)C3)c(F)c21 (stereo unspecified)
0.975

# repeat for `OCCc1ccccc1`
1

What would you report for c1ccc2c(c1)CCCC2C1=NCCN1 (stereo unspecified) ?
1.02

And `CCn1cc(C(=O)O)c(=O)c2cc(F)c(N3CCNCC3)nc21` ?
0.992

# repeat for COC(=O)C[C@H]1C2(C)CC34OC5(C)O[C@@]6([C@H](OC)C(OC(=O)C(C)C)[C@]7(C)C(/C(=C(/OC)C(C)C)C(=O)O[C@H]7c7ccoc7)[C@@]6(O5)[C@H](OC)[C@@]3(OC)C2OC(C)=O)[C@]14C (stereo partly specified)
1.01

Follow-up item: COc1ccc(OC)c(C(O)CNC(=O)CN)c1 (stereo unspecified)
1

Now consider `O=S(=O)(O)c1cc(N=C=S)ccc1/C=C/c1ccc(N=C=S)cc1S(=O)(=O)O` and answer again.
0.994
